measured target: T1, human CD40 full-length (human, UniProt P25942 21-277)
T1 construct: Also used for CD40 of Daudi cells, of CD40-expressing HEK293 cells and of the BPS CD40/NFkB HEK293 reporter cells where the row says so; also called CD4001012; CHOK1SV/CD40
T1 sequence (P25942 21-277): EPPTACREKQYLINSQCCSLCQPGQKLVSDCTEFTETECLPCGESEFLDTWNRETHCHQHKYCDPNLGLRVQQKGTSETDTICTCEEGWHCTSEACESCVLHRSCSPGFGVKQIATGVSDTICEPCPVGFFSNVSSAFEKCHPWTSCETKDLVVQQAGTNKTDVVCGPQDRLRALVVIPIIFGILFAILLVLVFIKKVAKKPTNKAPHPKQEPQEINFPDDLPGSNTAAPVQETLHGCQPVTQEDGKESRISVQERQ
experiment summary: flow cytometry, CHOK1SV/human CD40 cells
quantity name: binding result

CD4001199 (Fc fusion, humanized 1D5 variant; not shown: wildtype human IgG1 Fc and its linker to the scFv) scFv: DIQMTQSPSSVSASVGDRVTITCRSSQSLLFSVNQKNYLAWYQQKPGKAPKLLIYWASTRESGVPDRFSGSGSGTDFTLTISSLQPEDFATYYCQHYYSYPWTFGQGTKVEIKGGGGSGGGGSGGGGSGGGGSQVQLVQSGAEVKKPGSSVKVSCKASGYTFSTSWIEWIRQAPGQGLEWMGSILPGSGSTNYNQKFQGRVTITADTSTSTAYMELSSLRSEDTAVYYCARGDDGSYVRWYFDHWGQGTLVTVSS	binds
CD4001184 (Fc fusion, humanized 1D5 variant; not shown: wild-type human IgG1 Fc and the Fc-to-scFv linker) scFv: DIQMTQSPSSVSASVGDRVTITCRSSQSLLFSVNQKNYLAWYQQKPGKAPKLLIYWASTRESGVPDRFSGSGSGTDFTLTISSLQPEDFATYYCQHYYSYPWTFGQGTKVEIKGGGGSGGGGSGGGGSGGGGSQVQLVQSGAEVKKPGSSVKVSCKASGYTFSTSWIEWIRQAPGQGLEWIGSILPGSGSTNYNEKFKGKATFTADTSTSTAYMELSSLRSEDTAVYYCARGDDGSYVRWYFDHWGQGTLVTVSS	binds
